Cited source for all entries: patent US20240207429A1

# Experimental target: T1, Human FOLR1 Protein His Tag (ACRO-FO1-H52H1) (human, UniProt P15328 25-233)
# T1 construct: not shown: His tag
# T1 sequence (P15328 25-233 limits assumed): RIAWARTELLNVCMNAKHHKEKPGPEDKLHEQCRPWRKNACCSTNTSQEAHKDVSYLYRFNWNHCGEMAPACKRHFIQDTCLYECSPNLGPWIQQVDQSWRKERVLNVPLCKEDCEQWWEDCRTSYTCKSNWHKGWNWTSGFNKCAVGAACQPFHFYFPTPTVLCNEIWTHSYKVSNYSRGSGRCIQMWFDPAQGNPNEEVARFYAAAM
# Measurement notes: ELISA, supernatant diluted 25x
// NB: equality with 1 counts as 0 (no); only OD450 strictly below is 1 (yes)

Observe how each entry below is paired with its result.
(Q) Field: below-cutoff. Rule: recorded OD450 strictly less than 1. Subject: F48 (antibody, V domains shown, also called clone F48; anti-FOLR1 antibody F48) VH: EVQLLESGGGVVQPGRSLRLSCAASGFTFSSYGMHWVRQAPGKGLEWVAVISYDGSNKYYADSVKGRFTISRDNSKNTLYLHMNSLRAEDTAVYYCARPRAYYGAYGSSFDYWGQGTQVTVSS VL: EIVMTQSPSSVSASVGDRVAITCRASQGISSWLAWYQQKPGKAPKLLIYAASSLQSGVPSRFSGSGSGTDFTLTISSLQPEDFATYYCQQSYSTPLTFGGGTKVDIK
(A) 0 (no)

(Q) Field: below-cutoff. Rule: recorded OD450 strictly less than 1. Subject: F138 (antibody, V domains shown, also called clone F138; anti-FOLR1 antibody F138) VH: EVQLLESGGGVVQPGRSLRLSCAASGFTFSSYGMHWVRQAPGKGLEWVAVISYDGSNKYYADSVKGRFTISTHNSKNTLYLQMNSLRAEDTAVYYCARPRAYYGAYGSSFDYWGQGTQVTVSS VL: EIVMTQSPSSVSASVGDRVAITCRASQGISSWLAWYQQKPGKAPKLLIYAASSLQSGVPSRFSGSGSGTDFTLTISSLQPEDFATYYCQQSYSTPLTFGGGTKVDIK
(A) 1 (yes)

(Q) Field: below-cutoff. Rule: recorded OD450 strictly less than 1. Subject: F112 (antibody, V domains shown, also called clone F112; anti-FOLR1 antibody F112) VH: EVQLLESGGGVVQPGRSLRLSCAASGFTFSSYGMHWVRQAPGKGLEWVAVISYDGSNKYYADSVKGRFTISRHNSKNTLYLQMNSLRAEDTAVYYCARPRAYYGAYGSSFDYWGQGTQVTVSS VL: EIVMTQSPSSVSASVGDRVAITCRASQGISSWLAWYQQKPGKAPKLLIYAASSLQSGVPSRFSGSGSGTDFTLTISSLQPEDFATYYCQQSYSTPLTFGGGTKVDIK
(A) 0 (no)

(Q) Field: below-cutoff. Rule: recorded OD450 strictly less than 1. Subject: F131 (antibody, V domains shown, also called clone F131; F131 mAb) VH: EVQLLESGGGVVQPGRSLRLSCAASGFTFSSYGMHWVRQAPGKGLEWVAVISYDGSNKYYADSVKGRFTISRANSKNTLYLQMNSLRAEDTAVYYCARPRAYYGAYGSSFDYWGQGTQVTVSS VL: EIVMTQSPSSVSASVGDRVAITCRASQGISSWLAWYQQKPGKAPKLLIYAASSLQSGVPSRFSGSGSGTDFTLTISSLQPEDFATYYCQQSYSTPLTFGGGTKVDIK
(A) 0 (no)

(Q) Field: below-cutoff. Rule: recorded OD450 strictly less than 1. Subject: F8 (antibody, V domains shown, also called clone F8; anti-FOLR1 antibody F8) VH: EVQLLESGGGVVQHGRSLRLSCAASGFTFSSYGMHWVRQAPGKGLEWVAVISYDGSNKYYADSVKGRFTISRDNSKNTLYLQMNSLRAEDTAVYYCARPRAYYGAYGSSFDYWGQGTQVTVSS VL: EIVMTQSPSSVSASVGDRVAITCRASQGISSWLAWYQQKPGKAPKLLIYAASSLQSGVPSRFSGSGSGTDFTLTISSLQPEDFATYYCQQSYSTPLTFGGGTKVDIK
(A) 0 (no)

More entries:
(Q) Field: below-cutoff. Rule: recorded OD450 strictly less than 1. Subject: F40 (antibody, V domains shown, also called clone F40; anti-FOLR1 antibody F40) VH: EVQLLESGGGVVQPGRSLRLSCAASGFTFSSYAMHWVRQAPGKGLEWVAVISYDGSNKYYADSVKGRFIISRDNSKNTVYLQMNSLRAEDTAVYYCARPTYVFTYTGSSFDYWGQGTQVTVSS VL: DIQVTQSPSSLSASLGDTVSITCRASRGLTDSVAWYQQKPGQAPKLLIYAASTLQSGVPSRFGGSGSGSYFTLTITSLQPEDVATYYCQNYKSAPWTFGQGTKVEIK
(A) 1 (yes)

(Q) Field: below-cutoff. Rule: recorded OD450 strictly less than 1. Subject: F26 (antibody, V domains shown, also called clone F26; anti-FOLR1 antibody F26) VH: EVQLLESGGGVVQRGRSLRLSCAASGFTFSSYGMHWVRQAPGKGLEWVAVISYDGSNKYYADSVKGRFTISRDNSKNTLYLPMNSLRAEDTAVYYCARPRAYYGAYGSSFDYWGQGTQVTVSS VL: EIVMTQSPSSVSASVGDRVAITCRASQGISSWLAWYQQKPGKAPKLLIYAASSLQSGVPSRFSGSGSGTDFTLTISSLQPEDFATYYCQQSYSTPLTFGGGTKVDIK
(A) 0 (no)
